- Test system: L1210 leukemia ip in BDF1 mice, survival T/C
- assay_remarks: NCI In Vivo Anticancer Drug Screen. Data for tumor model L1210 Leukemia (intraperitoneal) in B6D2F1 (BDF1) mice
- condition_context: endpoint: mean survival time; dose: 400.0 mg/kg/injection; schedule: Q01DX001 (ip); vehicle: Klucel (hydroxypropylcellulose) (HPC); higher = longer survival
Inconclusive results and toxic doses are left out.
measured_property: T/C

{"molecular_string": "CSc1ncc2c(=O)n(-c3ccccc3)[nH]c2n1", "endpoint_value": "87 % of control"}
{"molecular_string": "S=C(N/N=C/c1ccncc1)Nc1ccccc1", "endpoint_value": "98 % of control"}

Continue with the compound presented below.
For the compound O=C(COc1ccc(Cl)c(Cl)c1)NCc1cccc(NC(=O)c2cccc(S(=O)(=O)F)c2)c1 , what T/C is on record?
91 % of control

---

- Test system: L1210 leukemia ip in BDF1 mice, survival T/C
- assay_remarks: NCI In Vivo Anticancer Drug Screen. Data for tumor model L1210 Leukemia (intraperitoneal) in B6D2F1 (BDF1) mice
- condition_context: endpoint: mean survival time; dose: 200.0 mg/kg/injection; schedule: Q01DX001 (ip); vehicle: saline; higher = longer survival
Inconclusive results and toxic doses are left out.
Items are presented alongside their recorded T/C.

{"compound": "COc1cccc(NC(=O)c2ccc(C(=O)Nc3cccc(OC)c3)cc2)c1", "T/C": "91 % of control"}

Under L1210 leukemia ip in BDF1 mice, survival T/C: T/C value of C=CCSc1n[nH]c(=O)[nH]c1=O ?
92 % of control

Similarly, Cc1ccccc1OB(Oc1ccccc1C)Oc1ccccc1C ?
109 % of control

Input O=C1c2ccccc2Cc2ccccc21
95 % of control

Try this compound too: CCC(C)c1cccc2c(C(CC)CC)cccc12 (stereo not drawn)
106 % of control

What do you have for O=C(COc1ccc(Br)cc1Br)OCCBr ?
105 % of control

Lookup CN=C(NC)SC
97 % of control

Request: COc1nc(OC)n(C)c(=O)c1OP(=O)(OC)OC
93 % of control

---

- Test system: L1210 leukemia ip in BDF1 mice, survival T/C
- assay_remarks: NCI In Vivo Anticancer Drug Screen. Data for tumor model L1210 Leukemia (intraperitoneal) in B6D2F1 (BDF1) mice
- condition_context: endpoint: mean survival time; dose: 12.5 mg/kg/injection; schedule: Q04DX003 (ip); vehicle: saline; higher = longer survival
Toxic doses and inconclusive results are not listed.
Below: a set of entries, each annotated with reported T/C.

{"compound": "CC(CO)NC(=O)C1C=C2c3cccc4[nH]cc(c34)CC2N(C)C1 (configuration not stated)", "measured_property": "T/C", "endpoint_value": "114 % of control"}
{"compound": "CCCC[n+]1ccccc1Cc1ccccc1", "measured_property": "T/C", "endpoint_value": "97 % of control"}
{"compound": "COc1cc2ccc3c(c2cc1OC)C=NCC3", "measured_property": "T/C", "endpoint_value": "87 % of control"}
{"compound": "CCC[As](=O)(O)CC(C)C", "measured_property": "T/C", "endpoint_value": "94 % of control"}
{"compound": "Oc1ccccc1O.[O-]c1ccccc1[O-].[O-]c1ccccc1[O-].[O]=[V+2]", "measured_property": "T/C", "endpoint_value": "111 % of control"}
{"compound": "CCCCOc1cc(C(=O)NCCN(CC)CC)c2ccccc2n1", "measured_property": "T/C", "endpoint_value": "98 % of control"}

Please look at the following compound next.
Return reported T/C; argument: CCCCCCCCCCCCCCCC(=O)N(CCCN)CCCN
98 % of control

---

- System: L1210 leukemia ip in BDF1 mice, survival T/C
- assay_remarks: NCI In Vivo Anticancer Drug Screen. Data for tumor model L1210 Leukemia (intraperitoneal) in B6D2F1 (BDF1) mice
- condition_context: endpoint: mean survival time; dose: 400.0 mg/kg/injection; schedule: Q01DX001 (ip); vehicle: carboxymethylcellulose (CMC); higher = longer survival
Toxic doses and inconclusive results are not listed.
Below, each of the compounds is paired with its reported T/C value.

A selection of reference data follows.
{"compound": "O=C1C(=O)c2cc(Cl)ccc2-c2ccccc21", "T/C": "105 % of control"}
{"compound": "CC(C)=CCC/C(C)=C\\C=N\\O", "T/C": "98 % of control"}
{"compound": "O=C(COc1ccccc1)N(O)c1ccc(/C=C/c2ccccc2)cc1", "T/C": "88 % of control"}
{"compound": "CC1=NN(c2ccccc2)C(=O)C1N=Nc1ccc(S(=O)(=O)Nc2nccc(C)n2)cc1 (centres undefined)", "T/C": "88 % of control"}

Find the recorded T/C belonging to CCOC(=O)CC(C(C)=O)C(=O)OCC (centres undefined) and report it.
100 % of control

Also check CC(=O)c1ccc(OC(=O)Oc2ccc(C(C)=O)cc2)cc1
93 % of control

What do you get for Cc1ncc(CC(=O)O)c2c1OC(C)(C)OC2 ?
98 % of control

Could you do the same for COc1cccc2cc[nH]c12 , please?
100 % of control

What about Cc1nc2ccccc2cc1C#N ?
108 % of control

Again, but for O=c1[nH]c2ccccc2c2ccc(Br)cc12
90 % of control

---

- Tested on: L1210 leukemia ip in BDF1 mice, survival T/C
- assay_remarks: NCI In Vivo Anticancer Drug Screen. Data for tumor model L1210 Leukemia (intraperitoneal) in B6D2F1 (BDF1) mice
- condition_context: endpoint: mean survival time; dose: 300.0 mg/kg/injection; schedule: Q01DX001 (ip); vehicle: carboxymethylcellulose (CMC); higher = longer survival
Inconclusive results and toxic doses are left out.
measured_property: T/C

{"compound": "CC(=O)N=c1sccn1Cc1ccccc1", "T/C": "98 % of control"}
{"compound": "COc1ccc(/C=C/c2cc[n+](C)cc2)cc1OC", "T/C": "103 % of control"}
{"compound": "O=[N+]([O-])C1CC12c1ccccc1-c1ccccc12 (centres undefined)", "T/C": "97 % of control"}

Endpoint output: T/C of O=[N+]([O-])c1ccc2cccnc2c1 . Value?
101 % of control

---

- System: L1210 leukemia ip in BDF1 mice, survival T/C
- assay_remarks: NCI In Vivo Anticancer Drug Screen. Data for tumor model L1210 Leukemia (intraperitoneal) in B6D2F1 (BDF1) mice
- condition_context: endpoint: mean survival time; dose: 200.0 mg/kg/injection; schedule: Q01DX009 (ip); vehicle: Klucel (hydroxypropylcellulose) (HPC)
Toxic doses and inconclusive results are not listed. Cut-off read from the data, not from the text of the source: active = T/C of 150% or more; inactive = T/C below 125%.
One label from this list, please: active, inactive

Recorded results for 3 compounds are shown here.
{"compound": "CC(=O)Oc1c(C(C)(C)C)cc(C)cc1C(C)(C)C", "test_target": "L1210 leukemia ip in BDF1 mice, survival T/C", "discrete_label": "inactive"}
{"compound": "S=C(NCc1ccc(Cl)cc1Cl)Nc1ccccc1", "test_target": "L1210 leukemia ip in BDF1 mice, survival T/C", "discrete_label": "inactive"}
{"compound": "CC(=O)OCC1OC(Oc2ccccc2)C(OC(C)=O)C(OC(C)=O)C(OC(C)=O)C1OC(C)=O (configuration not stated)", "test_target": "L1210 leukemia ip in BDF1 mice, survival T/C", "discrete_label": "inactive"}

Could you please tell me the result logged for CC(=O)c1cccc(NC(=O)Oc2ccc(Cl)cc2Cc2ccccc2)c1 in this assay?
inactive

Also, C/C(=N\NC(=O)CCCCC(=O)N/N=C(\C)c1ccc(C)cc1)c1ccc(C)cc1 please.
inactive

Do the same for CCc1oc2cc([N+](=O)[O-])ccc2c1C#N please
inactive

And the next one, NC(=O)c1[nH]cnc1/N=N/N(CCCl)Cc1ccccc1 ?
active

Now consider CCCCCCCCCC(O)CCC (configuration not stated) .
inactive

Can you check CCOC(=O)C1CC2C=CC1C2 (configuration not stated) next?
inactive

And then O=C(Cl)c1ccc(OC(Cl)(Cl)Cl)cc1 , what is it?
inactive

---

- Test system: L1210 leukemia ip in BDF1 mice, survival T/C
- assay_remarks: NCI In Vivo Anticancer Drug Screen. Data for tumor model L1210 Leukemia (intraperitoneal) in B6D2F1 (BDF1) mice
- condition_context: endpoint: mean survival time; dose: 400.0 mg/kg/injection; schedule: Q04DX003 (ip); vehicle: Klucel (hydroxypropylcellulose) (HPC)
Inconclusive results and toxic doses are left out. No stated cut-off is given here; in the data, active means T/C of 150% or more; inactive means T/C below 125%.
Choose one outcome from this list and give only that: active, inactive

{"molecule": "ClC1=C(Cl)C2(Cl)C(Br)C(Br)C1(Cl)C2(Cl)Cl (stereo unspecified)", "discrete_label": "inactive"}

Call for entry OC1(O)COC(c2ccccc2)OC1 :
inactive

---

- System: L1210 leukemia ip in BDF1 mice, survival T/C
- assay_remarks: NCI In Vivo Anticancer Drug Screen. Data for tumor model L1210 Leukemia (intraperitoneal) in B6D2F1 (BDF1) mice
- condition_context: endpoint: mean survival time; dose: 200.0 mg/kg/injection; schedule: Q01DX009 (ip); vehicle: saline with Tween-80; higher = longer survival
Inconclusive results and toxic doses are left out.
Parameter: T/C. Scope: all listed entries.

Worked cases, T/C given:
{"molecule": "CCCCCCCCCC(O)CCCCC (stereo not drawn)", "test_target": "L1210 leukemia ip in BDF1 mice, survival T/C", "T/C": "107 % of control"}
{"molecule": "FC(F)(F)c1cccc(NC(=S)Nc2ccccc2S)c1", "test_target": "L1210 leukemia ip in BDF1 mice, survival T/C", "T/C": "98 % of control"}
{"molecule": "O=C(CCCCl)Oc1ccccc1", "test_target": "L1210 leukemia ip in BDF1 mice, survival T/C", "T/C": "98 % of control"}
{"molecule": "O=C(CSc1cc(Cl)c(Cl)cc1Cl)Nc1ccccc1Br", "test_target": "L1210 leukemia ip in BDF1 mice, survival T/C", "T/C": "87 % of control"}

Can you share its T/C? I mean this molecule: CCCCNC(=O)Nc1ccc(N(C)C)cc1
90 % of control

Same again, this time with CC1(C)C=CC(C)(C)c2c(NS(=O)(=O)c3ccccc3)ccc(NS(=O)(=O)c3ccccc3)c21
92 % of control
